- protocol-details: chemical genetic growth profiling, strain panel (AID 1159580);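 note: tested at 20 µM; growth read once vehicle control cultures reached saturation at 30 °C; 1 = growth at the plate median or of vehicle wells; lower values mean less growth of the strain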
- condition-details: S. cerevisiae deletion strains, growth OD, locus YMR231W, strain pep5, active compounds read low
In all, about 5,500 compounds went through this assay and about 2,000 (36%) were called active. Inconclusive results (about 18%) are left out. This is one part of the list.
assay-endpoint: normalized growth
Give only the figure.

Req: Which normalized growth reading was recorded for the compound CN(C)CCN(Cc1cccs1)c1ccccn1 ?
Resp: 1.01

Req: Which normalized growth reading was recorded for the compound CC1(C)S[C@@H]2[C@H](NC(=O)[C@H](N)c3ccccc3)C(=O)N2[C@H]1C(=O)O ?
Resp: 0.985

Req: Which normalized growth reading was recorded for the compound C#CCN(C)Cc1ccccc1 ?
Resp: 1.02

Req: Which normalized growth reading was recorded for the compound COc1ccc(C2CNC(=O)C2)cc1OC1CCCC1 (centres undefined) ?
Resp: 1

Req: Which normalized growth reading was recorded for the compound COc1ccc(-c2coc3cc(O)ccc3c2=O)c(OC)c1 ?
Resp: 1.01

Req: Which normalized growth reading was recorded for the compound C=CC[C@]1(O)CCC2C3CCC4=CC(=O)CCC4=C3C=C[C@@]21C (some centres undefined) ?
Resp: 0.995

Req: Which normalized growth reading was recorded for the compound C=C1C2CC[C@@]3(C)[C@H](c4ccoc4)OC(=O)C[C@]13O[C@H]1CC(=O)C(C)(C)[C@H](C(OC(C)=O)C(=O)OC)[C@@]21C (some centres undefined) ?
Resp: 1.01

Req: Which normalized growth reading was recorded for the compound COC(=O)C1=COC(OC2OC(CO)C(O)C(O)C2O)C2C(C)CC(=O)C12 (centres undefined) ?
Resp: 1.03

Req: Which normalized growth reading was recorded for the compound NCCS(=O)(=O)O ?
Resp: 0.985

Req: Which normalized growth reading was recorded for the compound COC(=O)C[C@H]1C2(C)CC34OC5(C)O[C@@]6([C@H](OC)C(OC(=O)C(C)C)[C@]7(C)C(/C(=C(/OC)C(C)C)C(=O)O[C@H]7c7ccoc7)[C@@]6(O5)[C@H](OC)[C@@]3(OC)C2OC(C)=O)[C@]14C (some centres undefined) ?
Resp: 0.975

Req: Which normalized growth reading was recorded for the compound COc1ccc(-c2coc3cc(O)ccc3c2=O)cc1 ?
Resp: 1

Req: Which normalized growth reading was recorded for the compound O=C(NC(=O)c1ccccc1Cl)Nc1ccc(OC(F)(F)F)cc1 ?
Resp: 1.03

Req: Which normalized growth reading was recorded for the compound O=C(O)/C=C/c1ccc(O)c(O)c1 ?
Resp: 0.98

Req: Which normalized growth reading was recorded for the compound NCCCS(=O)(=O)O ?
Resp: 1.02

Req: Which normalized growth reading was recorded for the compound CC#CC1(O)CCC2C3CCC4=CC(=O)CCC4=C3C(c3ccc(N(C)C)cc3)CC21C (centres undefined) ?
Resp: 1

Req: Which normalized growth reading was recorded for the compound COC(=O)C[C@H]1C2(C)CC34OC5(C)O[C@@]6([C@H](OC(C)=O)C(OC(C)=O)[C@]7(C)C(/C(=C(/O)C(C)C)C(=O)O[C@H]7c7ccoc7)[C@@]6(O5)[C@H](OC(C)=O)[C@@]3(O)C2OC(=O)C(C)C)[C@]14C (some centres undefined) ?
Resp: 0.957

Req: Which normalized growth reading was recorded for the compound CCCCCCCCCCC[C@@H](C[C@H]1OC(=O)[C@H]1CCCCCC)OC(=O)[C@@H](CC(C)C)NC=O ?
Resp: 1.05

Req: Which normalized growth reading was recorded for the compound c1ccc2c(c1)sc1ccccc12 ?
Resp: 0.967

Req: Which normalized growth reading was recorded for the compound CCC(C)C(=O)O[C@@H]1C[C@@]2(C)[C@H](c3ccoc3)OC(=O)CC23OC2(C)O[C@]14[C@]1(C)[C@@H](CC(=O)OC)C5(C)CC1(O)[C@](O)(C5OC(=O)C1(C)OC1C)[C@@H](OC(C)=O)[C@]34O2 (some centres undefined) ?
Resp: 0.945

###

- protocol-details: chemical genetic growth profiling, strain panel (AID 1159580);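 note: tested at 20 µM; growth read once vehicle control cultures reached saturation at 30 °C; 1 = growth at the plate median or of vehicle wells; lower values mean less growth of the strain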
- condition-details: S. cerevisiae deletion strains, growth OD, locus YJL168C, strain set2
Screen size: about 5,500 compounds; about 2,000 (36%) were called active. Inconclusive results (about 18%) are left out. No stated cut-off is given here; in the data, active means normalized growth mostly below about 0.91 (no sharp cut-off); inconclusive means no clear call, values can overlap the other calls; inactive means mostly above about 0.92. The list shows a part of the results.
Parameter call: string, one of active, inactive

Req: How did this test come out for CN1CC(=O)N=C1N ?
Resp: inactive

Req: How did this test come out for Clc1ccc(C(OCCN2CCCCC2)c2ccccc2)cc1 (stereo not given) ?
Resp: inactive

Req: How did this test come out for Oc1cc(O)c2c(c1)OC(c1cc(O)c(O)c(O)c1)C(O)C2c1c(O)cc(O)c2c1OC(c1cc(O)c(O)c(O)c1)C(O)C2c1c(O)cc(O)c2c1OC(c1cc(O)c(O)c(O)c1)C(O)C2 (stereo not given) ?
Resp: inactive

Req: How did this test come out for O=c1cccc2ccc(O)c(O)c2c1O ?
Resp: inactive

Req: How did this test come out for COc1ccc(-c2coc3cc(O)ccc3c2=O)c(OC)c1 ?
Resp: inactive

Req: How did this test come out for CN1C2C[C@H](OC(=O)[C@H](CO)c3ccccc3)C[C@H]1[C@@H](O)C2 ?
Resp: inactive

Req: How did this test come out for CN1CCC(OC(c2ccccc2)c2ccccc2)CC1 ?
Resp: inactive

Req: How did this test come out for CN1CC(CO)=C[C@@H]2c3cccc4[nH]cc(c34)C[C@H]21 ?
Resp: inactive

Req: How did this test come out for COc1cc([C@@H]2c3cc4c(cc3C(OC3O[C@@H]5COC(C)O[C@H]5[C@H](O)[C@H]3O)C3COC(=O)[C@@H]32)OCO4)cc(OC)c1O (stereo not given in full) ?
Resp: inactive

Req: How did this test come out for COc1ccc(C(c2ccc(OC)cc2)C(Cl)(Cl)Cl)cc1 ?
Resp: inactive

Req: How did this test come out for CCCCC[C@H]1C(=O)O[C@H](C)[C@H](NC(=O)c2cccc(NC=O)c2O)C(=O)O[C@@H](C)[C@@H]1OC(=O)CC(C)C ?
Resp: inactive

Req: How did this test come out for O=C(O)/C=C/c1ccc(O)c(O)c1 ?
Resp: inactive

Req: How did this test come out for CN1C2CCC1CC(OC(c1ccccc1)c1ccccc1)C2 (stereo not given) ?
Resp: inactive

Req: How did this test come out for COc1ccc(-c2coc3cc(OC)ccc3c2=O)cc1 ?
Resp: inactive

Req: How did this test come out for C[C@@H]1CC(Cl)CC[C@H]1C(=O)OC(C)(C)C (stereo not given in full) ?
Resp: inactive

Req: How did this test come out for COC(=O)[C@@H]1OC(=O)C2OC23[C@@]1(C)CCC1[C@]2(C)C(C[C@H](O)[C@]13C)C(C)(C)[C@H](OC(C)=O)C[C@@H]2OC(C)=O (stereo not given in full) ?
Resp: inactive

Req: How did this test come out for COc1ccc(-c2coc3cc(O)ccc3c2=O)c(OC)c1O ?
Resp: inactive

Req: How did this test come out for COc1ccc(C(=O)CC(=O)O)c2c1C=CC(C)(C)O2 ?
Resp: inactive

Req: How did this test come out for C=CCc1ccc(OC(=O)c2ccccc2)c(OC)c1 ?
Resp: inactive

Req: How did this test come out for CCCCCCCCCCC[C@@H](C[C@H]1OC(=O)[C@H]1CCCCCC)OC(=O)[C@@H](CC(C)C)NC=O ?
Resp: inactive

Req: How did this test come out for CCC(C)C(=O)OC1CC2(C)C(c3ccoc3)OC(=O)CC23OC2(C)OC34C(OC(=O)C(C)C)C3(O)C(OC(=O)C5(C)OC5C)C5(C)CC3(O)C(C)(C5C(=O)OC)C14O2 (stereo not given) ?
Resp: inactive

Req: How did this test come out for CN(C)CCOC(c1ccc(Cl)cc1)c1ccccn1 (stereo not given) ?
Resp: inactive

Req: How did this test come out for Oc1ccc2c(c1)O[C@H](c1ccc(O)c(O)c1)[C@@H](O)C2 ?
Resp: inactive

Req: How did this test come out for COC(=O)c1cc(=O)c(O)c2c(O)c(O)ccc2c1 ?
Resp: active

Req: How did this test come out for C[n+]1c2cc(N)ccc2cc2ccc(N)cc21 ?
Resp: active

Req: How did this test come out for CN1C2CCC1CC(OC(c1ccccc1)c1ccccc1N)C2 (stereo not given) ?
Resp: inactive

Req: How did this test come out for Oc1cc(O)c2c(c1)O[C@H](c1ccc(O)c(O)c1)[C@@H](O)C2 ?
Resp: inactive

Req: How did this test come out for NCCCS(=O)(=O)O ?
Resp: inactive

Req: How did this test come out for COC(=O)C[C@H]1C2(C)CC34OC5(C)O[C@@]6([C@H](OC(C)=O)C(OC(C)=O)[C@]7(C)C(/C(=C(/O)C(C)C)C(=O)O[C@H]7c7ccoc7)[C@@]6(O5)[C@H](OC(C)=O)[C@@]3(O)C2OC(=O)C(C)C)[C@]14C (stereo not given in full) ?
Resp: inactive

Req: How did this test come out for CCCCCCC(C)OC(=O)COc1cc(Cl)c(Cl)cc1Cl (stereo not given) ?
Resp: inactive

Req: How did this test come out for COc1ccc2c(c1)OC/C(=C/c1ccc(OC)c(OC)c1)C2=O ?
Resp: inactive

Req: How did this test come out for CCCCNC(=O)NS(=O)(=O)c1ccc(C)cc1 ?
Resp: inactive

Req: How did this test come out for Oc1cc(O)c2c(c1)O[C@H](c1ccc(O)c(O)c1)[C@H](O)C2 ?
Resp: inactive

Req: How did this test come out for O=S(=O)(O)CCS ?
Resp: inactive

Req: How did this test come out for COc1ccc([C@H]2Oc3c(I)c(OC)cc(OC)c3C[C@@H]2O)cc1OC ?
Resp: inactive
